Hey, just so you know, these numbers are from ChEMBL document CHEMBL5579895.

- tested-on: UniProt P52333
- Sequence (P52333 whole entry): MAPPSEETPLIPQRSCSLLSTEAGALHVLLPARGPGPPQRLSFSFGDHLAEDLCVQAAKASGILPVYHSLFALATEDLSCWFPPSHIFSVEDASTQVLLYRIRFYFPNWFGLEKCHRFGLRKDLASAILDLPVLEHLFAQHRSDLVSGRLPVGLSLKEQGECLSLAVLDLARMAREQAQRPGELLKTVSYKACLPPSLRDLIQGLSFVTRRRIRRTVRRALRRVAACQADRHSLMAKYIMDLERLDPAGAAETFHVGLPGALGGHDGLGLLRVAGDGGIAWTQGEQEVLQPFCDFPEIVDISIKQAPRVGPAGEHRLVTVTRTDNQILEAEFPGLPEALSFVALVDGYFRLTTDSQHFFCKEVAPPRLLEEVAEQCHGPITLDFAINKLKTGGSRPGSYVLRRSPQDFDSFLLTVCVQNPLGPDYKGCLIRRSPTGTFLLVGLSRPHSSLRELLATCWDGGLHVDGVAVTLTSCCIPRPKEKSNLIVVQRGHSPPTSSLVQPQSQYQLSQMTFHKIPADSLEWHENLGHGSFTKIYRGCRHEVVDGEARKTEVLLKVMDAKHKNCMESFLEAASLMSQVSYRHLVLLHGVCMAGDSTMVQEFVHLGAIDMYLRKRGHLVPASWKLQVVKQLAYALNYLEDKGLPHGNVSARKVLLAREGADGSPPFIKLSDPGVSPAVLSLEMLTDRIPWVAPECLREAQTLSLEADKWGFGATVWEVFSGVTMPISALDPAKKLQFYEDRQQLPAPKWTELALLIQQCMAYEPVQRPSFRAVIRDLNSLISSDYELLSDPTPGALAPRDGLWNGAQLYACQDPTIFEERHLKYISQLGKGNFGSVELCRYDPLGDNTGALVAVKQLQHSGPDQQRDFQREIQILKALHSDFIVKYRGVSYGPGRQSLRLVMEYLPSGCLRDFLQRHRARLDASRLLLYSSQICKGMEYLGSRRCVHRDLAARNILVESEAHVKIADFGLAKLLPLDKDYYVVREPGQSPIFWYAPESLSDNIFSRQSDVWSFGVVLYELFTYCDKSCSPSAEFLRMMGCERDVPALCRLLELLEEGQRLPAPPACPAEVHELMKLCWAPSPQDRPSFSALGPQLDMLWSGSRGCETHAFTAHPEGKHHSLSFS
readout-type: pIC50
Reminder that pIC50 is minus the log10 of a molar concentration.

Lookup result for `C[C@@H](Oc1ccc2[nH]nc(-c3ccc(N4CC5(C4)CN(S(C)(=O)=O)C5)nc3)c2c1)c1c(Cl)cncc1Cl` ; measured pIC50: 6.69
